- Tested on: human APOE RNA
- METHOD DESCRIPTION: Activity in APOE C57BL/6NTac-Apoeem7250 knock-in mice, single ICV bolus, 8 weeks (Example 11)
- Assay type: in vivo
- RECORDED CONDITIONS: cortex; single ICV bolus 300 μg; 8 weeks post treatment; normalized to mouse Ppia
Strand notation (5' to 3'): a small letter for the sugar, then the base; units joined by * are phosphorothioate-linked, units joined directly phosphodiester-linked; [ ] holds rarer units or linkages, { } end groups; capitals alone tell only the bases. [ms] = mesyl phosphoramidate linkage; e = 2'-O-(2-methoxyethyl) (MOE); k = constrained ethyl (cEt); [5mC] = 5-methylcytosine; d = 2'-deoxy (DNA)
REPORTED PROPERTY: APOE RNA (% control) Cortex

SUBSTANCE | MEAS VALUE
1746804 (k[5mC]*kT*kT*dG[ms]dG[ms]dT[ms]dG[ms]dA[ms]dA[ms]dT*d[5mC]*dT*dT*dT*dA[ms]dT*dT[ms]kA*kA*kA; antisense) [Compound 1746804] | 40
1693102: 6-10-4 MOE gapmer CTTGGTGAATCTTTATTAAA, linkages ssssoszzzssssszssss (e[5mC]*eT*eT*eG*eGeT*dG[ms]dA[ms]dA[ms]dT*d[5mC]*dT*dT*dT*dA[ms]dT*eT*eA*eA*eA) [compound 1693102] | 58

====

- Test system: human APOE RNA
- METHOD DESCRIPTION: Dose-dependent inhibition of human APOE RNA in HepG2 cells, electroporation, 24 hours (Example 6)
- Format: cell-based
- RECORDED CONDITIONS: 20,000 nM
Strand notation (5' to 3'): a small letter for the sugar, then the base; units joined by * are phosphorothioate-linked, units joined directly phosphodiester-linked; [ ] holds rarer units or linkages, { } end groups; capitals alone tell only the bases. [ms] = mesyl phosphoramidate linkage; e = 2'-O-(2-methoxyethyl) (MOE); k = constrained ethyl (cEt); [5mC] = 5-methylcytosine; d = 2'-deoxy (DNA)

SUBSTANCE | APOE RNA (% UTC)
1736513 (e[5mC]*eTeT*eG*eG*kT*dG[ms]dA[ms]dA[ms]dT*d[5mC]*dT*dT*dT*dA[ms]dT*eT*eA*eA*eA; antisense) [Compound 1736513] | 4
1736529 (e[5mC]*eT*eT*eG*eG*eTdG[ms]dA[ms]dA[ms]dT*d[5mC]*dT*dT*dT*dA[ms]dT*kT*kA*eA*eA; antisense) [Compound 1736529] | 30
1736523: 6-10-4 MOE gapmer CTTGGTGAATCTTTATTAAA, linkages ssoooszzssssssssoss (e[5mC]*eT*eTeGeGeT*dG[ms]dA[ms]dA*dT*d[5mC]*dT*dT*dT*dA*dT*eTeA*eA*eA) [compound 1736523] | 4
1736527: 6-10-4 MOE gapmer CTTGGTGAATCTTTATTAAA, linkages sssooozzsssssssssss (e[5mC]*eT*eT*eGeGeTdG[ms]dA[ms]dA*dT*d[5mC]*dT*dT*dT*dA*dT*eT*eA*eA*eA) [compound 1736527] | 23
1736531 (e[5mC]*eT*eT*eG*eG*kTdG[ms]dA[ms]dA[ms]dT*d[5mC]*dT*dT*dT*dA[ms]dT*eT*eA*eA*eA; antisense) [Compound 1736531] | 20
